observationType: melting point

Previously resolved entries follow.
CC(C)(C)c1ccc(-c2ccc3c(c2)C=C(C(=O)O)CCS3(=O)=O)cc1 ... 289 to 291 °C
O=c1[nH]c2ccc(F)cc2c(=O)o1 ... 240 °C

Item `Cc1nn(-c2cc(O)c(Cl)cc2F)c(C)c1C` : provide melting point
158 to 160 °C

Item `CC1=C(c2ccnnc2)SCC(=O)N1` : provide melting point
231 to 233 °C

Item `CC(CC(N)=O)(c1ccc(O)cc1)c1ccc(O)cc1` : provide melting point
216 °C

Item `CN(CC(=C1NCCCS1)[N+](=O)[O-])c1ccccc1` : provide melting point
105 to 106 °C

Item `CCCNC(=O)C1(CCCCC#N)c2ccccc2-c2ccccc21` : provide melting point
102 to 104 °C

Item CCOCC1COc2cc3c(Cl)c(C(=O)OCC)cnc3cc2O1 (configuration not stated) : provide melting point
106 to 108 °C

Item CC(C)N(C(C)C)C(C)CN1C(=O)C(=O)c2ccccc21 (configuration not stated) : provide melting point
111 to 112 °C

Item `CC(C)(C)c1cc(NC(=O)C=Cc2ccccc2)cc(C(C)(C)C)c1O` : provide melting point
211 to 214 °C

Item `CC(=O)N(C)c1cc(Cl)ccc1C(=O)c1cnoc1C1CC1` : provide melting point
106 to 108 °C

Item `CC(=O)NC[C@H]1CN(c2ccc(-n3nccc3-c3cccnc3)c(F)c2)C(=O)O1` : provide melting point
83.7 to 85.9 °C

Item CC1COCc2nc3c(N)nc4cc(CCC(=O)N(C)C)ccc4c3n21 (configuration not stated) : provide melting point
235 to 237 °C

Item `C[C@]1(CN2CCC(Cc3ccc(OC(F)(F)F)cc3)CC2)Cn2cc([N+](=O)[O-])nc2O1` : provide melting point
111 to 112 °C

###

This listing pairs molecules with measured melting point.

Previously resolved entries follow.
CC(C)c1nn(-c2ccc(C(F)(F)F)cn2)cc1CCCCOc1ccc(CCC(=O)O)cc1 ... 144 to 145 °C
Cc1cccc(Nc2cc(Nc3cccc(OCCCN(C)C)c3)ncn2)c1 ... 142 to 144 °C

Continue with the molecule presented below.
Item O=c1ccc2cc(OC3O[C@H](CO)[C@@H](O)[C@H](O)[C@H]3O)c(OCc3ccccc3)cc2o1 (stereo not given in full) : provide melting point
184 to 186 °C

###

This listing pairs compounds with measured melting point.

CC(C)(C)OC(=O)CC[C@@H](NC(=O)OCc1ccccc1)c1nnn[nH]1 ... 99 to 101 °C
NC(=O)N1C(=O)C(C(=O)c2cc(Cl)cs2)c2cc(C(F)(F)F)ccc21 (stereo unspecified) ... 164 to 166 °C
O=C(Nc1ccc(-n2nc(C3CCCO3)cc2C(F)(F)F)cc1)c1ccncc1F (stereo unspecified) ... 116 to 118 °C

Item `CC(=O)Nc1ccc([C@@H]2CO2)cn1` : provide melting point
96 to 98 °C

Item `Brc1ccc(SCc2ncon2)cc1` : provide melting point
56 °C

Item `CC(C)N1CCC(N2CCN(CCN3CCCCC3)C2=C(C#N)C#N)CC1` : provide melting point
93 to 95 °C

###

This listing pairs compounds with measured melting point.

N#CNC(=S)Nc1ccc(OCc2ccccc2)cc1 ... > 270 °C

Item `Cc1cc(C)nc(COCP(=O)(O)O)c1` : provide melting point
153 to 156 °C

Item Cc1nnc2n1-c1ccccc1NC2C (stereo unspecified) : provide melting point
172 to 173 °C

Item `COc1ccc(CC(=O)NCc2ccccc2-c2ccccc2C(=O)NCc2ccc(F)cc2F)cc1` : provide melting point
138 °C

Item `CCCN(CCC)CC(=O)Nc1cccc2c1C(=O)c1c(NC(=O)CN(CCC)CCC)cccc1C2=O` : provide melting point
129 to 130 °C

Item `O=C(NCCCCSc1ccncc1)c1ccccc1` : provide melting point
75 to 77 °C
